# credit: the SangsterLogP compilation

# APPLIED CONDITIONS: pH 2.0
MEASUREMENT LABEL: logD
Numbers only.

Input COc1cc(OC)nc(NC(=O)NS(=O)(=O)N(C)S(C)(=O)=O)n1 . Output logD: 1.63

###

For each entry below, report its logP value.
Answers are plain numbers.

Consider the reported logP for these compounds:
- O=[N+]([O-])c1ccc(NS(=O)(=O)c2ccc(Cl)c(C(F)(F)F)c2)c(Cl)c1: 2.4
- CCSCCSP(=O)(OC)OC: 1.32
- CCOC1Oc2ccc(OS(C)(=O)=O)cc2C1(C)C (stereo not drawn): 2.7
- C=CCNC(=O)CN(CC=C)C(=O)C(Cl)Cl: 1
- CCCSP(=O)(OCC)Oc1ccc(Br)cc1Cl (stereo not drawn): 4.44

For each of the items listed, what is its logP?
1. CCOC(=O)[C@@H](C)Oc1ccc(Oc2nc3ccc(Cl)cc3o2)cc1
2. CCNP(=S)(OC)O/C(C)=C/C(=O)OC(C)C (stereo not drawn)
3. C#CCOS(=O)OC1CCCCC1Oc1ccc(C(C)(C)C)cc1 (stereo not drawn)
4. Cc1cnc(C2=NC(C)(C(C)C)C(=O)N2)c(C(=O)O)c1 (stereo not drawn)
5. COC(=O)C(C)N(C(=O)c1ccco1)c1c(C)cccc1C (racemic)
6. CCC1OCC(COc2ccc(Oc3ccccc3)cc2)O1 (stereo not drawn)
7. O=c1oc2ccccc2c(O)c1C1CC(c2ccc(OCc3ccc(C(F)(F)F)cc3)cc2)Cc2ccccc21 (stereo not drawn)
8. CC1(C)CCC(Cc2ccc(Cl)cc2)C1(O)Cn1cncn1 (stereo not drawn)

A.
[4.58, 3.82, 3.73, 0.39, 2.7, 4.3, 4.7, 3.93]
